- Tested on: TTR
- assayText: TTR editing in primary human hepatocytes transfected with Spy Cas9 mRNA and dgRNAs (Table 9)
- Format: cell-based
- conditionDetails: dgRNA co-transfected with Spy Cas9 mRNA (SEQ ID NO:2)
- Method: Primary liver hepatocytes. Primary human liver hepatocytes (PHH) and primary cynomolgus liver hepatocytes (PCH) (Gibco) were cultured per the manufacturer's protocol (Invitrogen, protocol 11.28.2012). […] Cells were counted and plated on Bio-coat collagen I coated 96-well plates (ThermoFisher, Cat. 877272) at a density of 33,000 cells/well for human or 60,000 cells/well for cyno (or 65,000 cells/well when assaying effects on TTR protein, described further below). […]
Decision: Avg % Edit compared against 3%; not below it gives Yes, below it gives No.

> print(dat)
                             residuesequence  assignedclass
 1  AGUCCCUCAUUCCUUGGGAU (tested as dual guide RNA, chemistry not given here) [CR003392]             No
 2  AAUGGUGUAGCGGCGGGGGC (tested as dual guide RNA, chemistry not given here) [CR003375]             No
 3  GGCUGUCGUCACCAAUCCCA (tested as dual guide RNA, chemistry not given here) [CR003391]            Yes
 4  UAUAGGAAAACCAGUGAGUC (tested as dual guide RNA, chemistry not given here) [CR005305]            Yes
 5  CUGCUCCUCCUCUGCCUUGC (tested as dual guide RNA, chemistry not given here) [CR003335]            Yes
 6  CCCCUACUCCUAUUCCACCA (tested as dual guide RNA, chemistry not given here) [CR003385]            Yes
 7  UGCACGGCCACAUUGAUGGC (tested as dual guide RNA, chemistry not given here) [CR003349]             No
 8  AGCCUUUCUGAACACAUGCA (tested as dual guide RNA, chemistry not given here) [CR003351]            Yes
 9  AUACCAGUCCAGCAAGGCAG (tested as dual guide RNA, chemistry not given here) [CR003338]            Yes
10  CUCUGCAUGCUCAUGGAAUG (tested as dual guide RNA, chemistry not given here) [CR003369]             No
11  GGGCGGCAAUGGUGUAGCGG (tested as dual guide RNA, chemistry not given here) [CR003379]            Yes
12  GCUGCAUGGGCUCACAACUG (tested as dual guide RNA, chemistry not given here) [CR003361]            Yes
13  UACUCACCUCUGCAUGCUCA (tested as dual guide RNA, chemistry not given here) [CR003372]             No

----------
Form field: Avg % Edit (one value per entry).
- Tested on: TTR
- assayText: TTR editing in primary cyno hepatocytes electroporated with Spy Cas9 protein and dgRNAs (Tables 10, 11)
- Assay type: cell-based, cynomolgus monkey
- conditionDetails: primary cyno hepatocytes electroporated with Spy Cas9 protein (RNP) and cyno specific dgRNAs
observable: Avg % Edit (%)

> print(dat)
                            residuesequence  tgt  observedvalue
1  CAUUGACAGCAGGACUGCCU (tested as dual guide RNA, chemistry not given here) [CR005365]  TTR          64.94
2  AAGUGACUUCCAGUAAGAUU (tested as dual guide RNA, chemistry not given here) [CR005371]  TTR           8.42
3  ACACAAAUACCAGUCCAGCG (tested as dual guide RNA, chemistry not given here) [CR000689]  TTR          24.41
4  AAAGGCUGCUGAUGAGACCU (tested as dual guide RNA, chemistry not given here) [CR005364]  TTR          27.70
5  ACUUGUCUUCUCUAUACCCA (tested as dual guide RNA, chemistry not given here) [CR005370]  TTR          63.52
6  AAAGUUCUAGAUGCCGUCCG (tested as dual guide RNA, chemistry not given here) [CR005369]  TTR          42.01
7  AUACCAGUCCAGCGAGGCAG (tested as dual guide RNA, chemistry not given here) [CR005366]  TTR          77.00

----------
The sequences listed here are annotated with their Avg % Insert.
- Test system: TTR
- assayText: TTR editing in HepG2 cells transfected with Spy Cas9 mRNA and dgRNAs (Table 6)
- Format: cell-based, human
- conditionDetails: HepG2 cells co-transfected with Spy Cas9 mRNA (SEQ ID NO:2) and dgRNAs
observable: Avg % Insert (%)

> print(dat)
                             residuesequence  tgt  observedvalue
 1  CAGAGGACACUUGGAUUCAC (tested as dual guide RNA, chemistry not given here) [CR003343]  TTR          40.05
 2  GGCCGUGCAUGUGUUCAGAA (tested as dual guide RNA, chemistry not given here) [CR005304]  TTR           8.07
 3  GCGGCAAUGGUGUAGCGGCG (tested as dual guide RNA, chemistry not given here) [CR003377]  TTR          15.29
 4  ACCUGGGAGCCAUUUGCCUC (tested as dual guide RNA, chemistry not given here) [CR003354]  TTR           4.84
 5  AAUAGGAGUAGGGGCUCAGC (tested as dual guide RNA, chemistry not given here) [CR003384]  TTR           3.12
 6  UGUCUGUCUUCUCUCAUAGG (tested as dual guide RNA, chemistry not given here) [CR005307]  TTR           7.70
 7  UCUAGAACUUUGACCAUCAG (tested as dual guide RNA, chemistry not given here) [CR003345]  TTR           6.12
 8  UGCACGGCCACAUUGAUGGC (tested as dual guide RNA, chemistry not given here) [CR003349]  TTR           4.46
 9  CGGCAAUGGUGUAGCGGCGG (tested as dual guide RNA, chemistry not given here) [CR003376]  TTR          14.16
10  AGACACCAAAUCUUACUGGA (tested as dual guide RNA, chemistry not given here) [CR003367]  TTR          24.28
11  AAAUAGACACCAAAUCUUAC (tested as dual guide RNA, chemistry not given here) [CR003366]  TTR          46.20
12  AAAUCUUACUGGAAGGCACU (tested as dual guide RNA, chemistry not given here) [CR005306]  TTR          21.20
13  AGCCGUGGUGGAAUAGGAGU (tested as dual guide RNA, chemistry not given here) [CR005299]  TTR          36.32
14  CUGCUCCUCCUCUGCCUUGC (tested as dual guide RNA, chemistry not given here) [CR003335]  TTR          32.96
15  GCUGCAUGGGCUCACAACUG (tested as dual guide RNA, chemistry not given here) [CR003361]  TTR          11.47
16  UCCACUCAUUCUUGGCAGGA (tested as dual guide RNA, chemistry not given here) [CR005298]  TTR          21.29
17  AUUGGUGACGACAGCCGUGG (tested as dual guide RNA, chemistry not given here) [CR003389]  TTR          27.27
18  AAGUGCCUUCCAGUAAGAUU (tested as dual guide RNA, chemistry not given here) [CR003368]  TTR          48.34
19  GGCGGCAAUGGUGUAGCGGC (tested as dual guide RNA, chemistry not given here) [CR003378]  TTR           6.82
20  AGUGAGUCUGGAGAGCUGCA (tested as dual guide RNA, chemistry not given here) [CR003359]  TTR          48.79
21  GGGGCUCAGCAGGGCGGCAA (tested as dual guide RNA, chemistry not given here) [CR003381]  TTR           6.18
22  ACCUCUGCAUGCUCAUGGAA (tested as dual guide RNA, chemistry not given here) [CR003371]  TTR          14.07
23  CCAGUCCAGCAAGGCAGAGG (tested as dual guide RNA, chemistry not given here) [CR003337]  TTR          59.28
24  AAAGUUCUAGAUGCUGUCCG (tested as dual guide RNA, chemistry not given here) [CR003346]  TTR           0.07
25  UUCUUUGGCAACUUACCCAG (tested as dual guide RNA, chemistry not given here) [CR003357]  TTR          42.37
26  GCCGUGGUGGAAUAGGAGUA (tested as dual guide RNA, chemistry not given here) [CR003387]  TTR           1.27
27  GACGACAGCCGUGGUGGAAU (tested as dual guide RNA, chemistry not given here) [CR003388]  TTR           7.76
28  CUGAGGAGGAAUUUGUAGAA (tested as dual guide RNA, chemistry not given here) [CR003364]  TTR          31.03
